- System: U-251
- Test summary: NCI tumour cell line growth inhibition, 48 h
Calls of active or inactive are those of the source. Rule as the data show it: active = GI50 up to about 1.1 µM and inactive = higher.
Outcome field: choose from active, inactive

Answered cases to consult:
>>> print(df.to_string())
                                   compound  category_label
0  COC(=O)C1C2C=CC(C2)C1(C(=O)OC)[S+]([O-])CC12CCC(CC1O)C2(C)C (stereo not given)        inactive
1  CSc1c([S+](C)[O-])[nH]c2cc(Br)cc(Br)c12 (stereo not given)          active
2                      c1cnc2nc3n(c2c1)CSC3        inactive
3  NS(=O)(=O)c1nnc(NC(=O)C23CC4CC(CC(C4)C2)C3)s1        inactive

I'd appreciate the recorded outcome for CC(=O)/C(=C\c1ccc(Cl)c(Cl)c1)C(=O)C(C)CN(C)C (stereo not given) from this test.
inactive

Recorded call for CCCCC1CCCCCCc2[nH]c(/C=C3\N=C(c4ccc[nH]4)C=C3OC)cc21 (stereo not given) ?
active

Kindly provide the recorded test outcome for the following compound: `CCCCSC1=N/C(=C\c2ccc(N(C)C)cc2)C(NN)=N1`
inactive

Which result was noted for this compound in the test: `O=S1(=O)N=C(SCc2c[nH]c3ccccc23)N(c2ccccc2)c2ccncc21`
inactive

Tell me the assay call for `Cc1cc(O)c2c(c1)C(=O)c1c(c(O)cc(O)c1-c1c(O)cc(O)c3c1C(=O)c1cc(C)cc(O)c1C3=O)C2=O` please.
inactive

For this compound, state the assay outcome: C[N+]12C=CC=C1C(N1CCCC1)c1sc(-c3ccc(Cl)cc3)cc12 (stereo not given)
inactive
